assayed.system: p110δ/p85α (Homo sapiens (Human), UniProt O00329)
Sequence (O00329 whole entry): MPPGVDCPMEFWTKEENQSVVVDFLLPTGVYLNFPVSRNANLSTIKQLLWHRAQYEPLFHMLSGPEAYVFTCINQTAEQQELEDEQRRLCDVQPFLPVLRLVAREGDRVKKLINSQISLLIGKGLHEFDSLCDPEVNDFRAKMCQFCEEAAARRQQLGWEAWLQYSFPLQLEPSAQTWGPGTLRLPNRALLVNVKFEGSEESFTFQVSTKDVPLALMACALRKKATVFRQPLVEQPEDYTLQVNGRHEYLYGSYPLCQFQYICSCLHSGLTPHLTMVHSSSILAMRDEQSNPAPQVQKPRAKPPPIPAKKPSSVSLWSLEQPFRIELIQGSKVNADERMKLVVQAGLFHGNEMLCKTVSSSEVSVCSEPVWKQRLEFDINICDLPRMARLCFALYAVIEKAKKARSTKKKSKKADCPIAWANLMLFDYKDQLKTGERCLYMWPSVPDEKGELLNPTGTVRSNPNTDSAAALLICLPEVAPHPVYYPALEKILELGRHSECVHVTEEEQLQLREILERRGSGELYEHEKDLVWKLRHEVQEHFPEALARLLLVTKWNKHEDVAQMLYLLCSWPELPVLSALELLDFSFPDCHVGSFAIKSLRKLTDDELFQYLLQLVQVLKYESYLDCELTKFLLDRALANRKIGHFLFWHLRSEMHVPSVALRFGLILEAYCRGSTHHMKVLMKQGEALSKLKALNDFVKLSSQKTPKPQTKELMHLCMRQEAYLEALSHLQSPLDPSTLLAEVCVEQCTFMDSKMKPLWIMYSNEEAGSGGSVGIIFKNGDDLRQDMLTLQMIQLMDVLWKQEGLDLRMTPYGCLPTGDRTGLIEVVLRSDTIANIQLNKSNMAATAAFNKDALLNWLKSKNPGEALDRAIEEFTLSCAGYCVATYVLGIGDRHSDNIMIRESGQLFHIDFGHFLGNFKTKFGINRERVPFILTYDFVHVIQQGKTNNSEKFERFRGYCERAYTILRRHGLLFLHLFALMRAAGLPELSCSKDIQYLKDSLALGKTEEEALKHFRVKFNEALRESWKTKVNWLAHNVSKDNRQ
Sequence (P27986 whole entry partner): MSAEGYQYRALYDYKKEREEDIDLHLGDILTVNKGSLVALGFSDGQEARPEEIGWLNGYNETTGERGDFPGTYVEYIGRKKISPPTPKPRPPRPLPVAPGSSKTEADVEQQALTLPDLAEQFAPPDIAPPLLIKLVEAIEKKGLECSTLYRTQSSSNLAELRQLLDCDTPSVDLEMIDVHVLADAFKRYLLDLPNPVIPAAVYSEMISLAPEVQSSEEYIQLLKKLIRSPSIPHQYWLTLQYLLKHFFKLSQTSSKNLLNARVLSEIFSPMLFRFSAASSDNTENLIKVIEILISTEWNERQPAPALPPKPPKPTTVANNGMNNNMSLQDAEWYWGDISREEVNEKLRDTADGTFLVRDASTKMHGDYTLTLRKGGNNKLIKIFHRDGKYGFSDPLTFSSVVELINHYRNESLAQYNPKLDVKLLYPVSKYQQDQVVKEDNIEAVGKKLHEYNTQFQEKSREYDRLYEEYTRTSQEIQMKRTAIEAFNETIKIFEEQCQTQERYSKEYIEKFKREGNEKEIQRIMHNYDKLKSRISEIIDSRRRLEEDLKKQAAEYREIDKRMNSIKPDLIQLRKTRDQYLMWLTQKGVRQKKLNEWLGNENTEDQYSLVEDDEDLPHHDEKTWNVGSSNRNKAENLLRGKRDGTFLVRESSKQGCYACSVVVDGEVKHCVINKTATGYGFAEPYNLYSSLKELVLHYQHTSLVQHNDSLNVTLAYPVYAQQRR
assay: PI3K δ inhibition assay (TLC lipid kinase or HTRF)
Format: biochemical
pIC50: −log10 of the molar value.
quantity.kind: pIC50

Record excerpt, results attached:
1) CCC(Nc1ncnc2[nH]cnc12)c1cc2ccccc2nc1N1CCN(C)CC1 (centres unmarked) [Compound 95] | > 7.00
2) Nc1ncnc2c1c(-c1cccnc1)nn2Cc1cc2ccccc2nc1N1CCCC1 [Compound 62] | 6.00 to 7.00
3) CC(c1cc2ccccc2nc1N1CCN(C)CC1)n1nc(-c2cc(O)cc(F)c2)c2c(N)ncnc21 (centres unmarked) [Compound 73] | > 7.00
4) CC(=O)Nc1nc2ccc(-c3nn(Cc4cc5ccccc5nc4N(C)C)c4ncnc(N)c34)cc2s1 [Compound 130] | > 7.00
5) CCC(c1cc2ccccc2nc1N1CCCC1)n1nc(-c2cc(O)cc(F)c2)c2c(N)ncnc21 (centres unmarked) [Compound 40] | > 7.00

Now consider a different compound.
# input What value of pIC50 has been recorded for this entry: CN1CCN(c2ncccc2Cn2nc(-c3cc(O)cc(F)c3)c3c(N)ncnc32)CC1 [Compound 200]
# output > 7.00

Recorded values, source patent US9790228B2.
